Data origin, for the record: ChEMBL document CHEMBL3988442

Give measured Percent Effect for each item. Keep answers brief.
- System: Wolbachia pipientis
- assay.notes: Anti-Wolbachia Cell-Based Screen
- Assay type: functional
- Set-up: scale not given: in the data most compounds retested in dose-response had high values
- measurement.setup: 5 µM
In all, about 48,000 compounds went through this assay and about 13,000 (27%) showed an effect of 50% or more. The list shows a part of the results.
# value in %; strip the unit string

Incoming: Complete the entry with Percent Effect for O=C(Cc1cccc(F)c1)NCCCNC(=O)c1cccc(O)c1
Outgoing: 95

Incoming: Give me measured Percent Effect, please, for this compound: CCCNC(=O)c1ccc(S(=O)(=O)NCC2(O)CCCNC2)cc1 (stereo unspecified)
Outgoing: -4.599

Incoming: Return Percent Effect for the following compound: COCCN1CCC(CN(CC2CCCO2)C(=O)COC)CC1 (stereo unspecified)
Outgoing: -4.712

Incoming: Read the entry CC(C)(C)C(=O)NCCC(=O)NS(=O)(=O)c1cccnc1 and write its reported Percent Effect.
Outgoing: 1.555

Incoming: Supply recorded Percent Effect for Cc1cnccc1-c1cnn(CCNC(=O)c2ccncc2)c1C1CC1.Cl here.
Outgoing: 189.5

Incoming: Report measured Percent Effect; entry is COCCN1CCC(CN(CC2CCCO2)C(=O)CCC(F)(F)F)CC1 (stereo unspecified)
Outgoing: 140.7

Incoming: Give Percent Effect for Cc1ccc(CN(C(=O)NCCNC(=O)c2cccnc2)C(C)C)o1
Outgoing: -0.6443

Incoming: Specify measured Percent Effect for CN(CC1CCOCC1)C(=O)NCCCN1CCCCC1 .
Outgoing: -10.18

Incoming: Please look at this compound and report its Percent Effect: COC(=O)c1cc2c(=O)[nH]c(=O)n(CCc3ccccc3)c2nc1C
Outgoing: -9.313

Incoming: Look up and state reported Percent Effect for Cc1cnccc1-c1cnn(CCNC(=O)c2cccnc2)c1C1CC1.Cl
Outgoing: 156.9

Incoming: Consider the compound COCCN1CCC(CN(CC2CCCO2)C(=O)CCNC(C)=O)CC1 (stereo unspecified) . State its measured Percent Effect.
Outgoing: -5.608
